test system: hT40, dGA, dGAE and truncated tau fragments; test: Binding ELISA / epitope mapping of anti-tau scAbs with truncated tau proteins and 13mer peptides; set-up: species or system human; conditions: Table 16; NS, S and M clones; incl. 13mer peptides
Recorded Shortest region bound on hT40 by entry

molecule	assayResult
S1F4: anti-tau clone, Table 2; SEQ ID NO: 414 (protein, S1F4 amino acid sequence) scFv: QVQLQESGPSLVKPSQTLSLTCTVSGFSLSSNSVGWVRQAPGKAPEWVAGIDTDGEEGYNPALNSRLSITRDTSKSQVSLSLSSVTSEDTAVYYCVRSYRADGLAYGYVQAIDYWGPGLLLTISSEGKSSGASGESKVDDQAVVTQPSSVSGSLGQRVSITCSGSFIGISSVGWFQQLPGSGLRTVIVASDGRPSGVPDRFSNSKSGNTATLTISSLQAEDEADYFCGSSDRTQYTGVFGSGTRLTVLG	367-379

Request: Entry under review: S1B1: anti-tau clone, Table 2; SEQ ID NO: 412 (protein, S1B1 amino acid sequence) scFv: QVQLQESGPSLVKPSQTLSLTCTVSGFSLSSNSVGWVRQAPGKAPEWVAGIDTDGEEGYNPALNSRLSITRDTSKSQVSLSLSSVTSEDTAVYYCVRSYRTDGLAYGYVQAIDYWGPGLLVTVSSEGKSSGASGESKVDDQAVLTQPSSVSGSLGQRVSITCSGSFIGISSVGWFQQLPGSGLRTVIVASDGRPSGVPDRFSNSKSGNTATLTISSLQAEDEADYFCGSSDRTQYTGVFGSGTRLTVLG . Reported Shortest region bound on hT40?
Response: 367-379
